I'd appreciate it if you could supply Disease Control All Rates Average SEPTTR-184 3DC values for the items below.
system: Zymoseptoria tritici (SEPTTR-184); test: Efficacy of target gene fragments (MgCytB dsRNA tiles) on wheat plants, SEPTTR-184; assay type: in vivo; conditions: 3DC (curative); average of 200, 50, 12.5, 3.125 ppm
Please reply with the bare figure in % and do not write the unit itself.

What value of measured Disease Control All Rates Average SEPTTR-184 3DC is listed for MgCytB-T6: 258 bp dsRNA of Zymoseptoria CytB region T6, location 775-1032 (SEQ ID NO:9) (nucleic acid, listed as Zymoseptoria tritici, complementary strand of dsRNA) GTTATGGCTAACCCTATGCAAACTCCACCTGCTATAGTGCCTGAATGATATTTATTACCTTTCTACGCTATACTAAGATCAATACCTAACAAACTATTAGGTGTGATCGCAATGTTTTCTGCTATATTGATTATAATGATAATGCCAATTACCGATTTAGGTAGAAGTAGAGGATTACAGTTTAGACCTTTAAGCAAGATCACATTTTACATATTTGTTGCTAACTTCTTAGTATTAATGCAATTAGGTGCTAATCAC ?
60

Return reported Disease Control All Rates Average SEPTTR-184 3DC; argument: MgCytB-T7: 221 bp dsRNA of Zymoseptoria CytB region T7, location 947-1167 (SEQ ID NO:10) (nucleic acid, listed as Zymoseptoria tritici, complementary strand of dsRNA) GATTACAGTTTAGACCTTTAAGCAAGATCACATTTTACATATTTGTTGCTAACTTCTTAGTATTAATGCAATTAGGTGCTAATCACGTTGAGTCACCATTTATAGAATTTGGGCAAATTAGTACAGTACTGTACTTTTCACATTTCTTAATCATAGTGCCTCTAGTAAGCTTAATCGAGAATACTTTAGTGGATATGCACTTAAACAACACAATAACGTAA
74

Entry MgCytB-T3: 116 bp dsRNA of Zymoseptoria CytB region 3, location 279-394 (SEQ ID NO:6) (nucleic acid, listed as Zymoseptoria tritici, long dsRNA, chemistry not given here, further chemistry not given here) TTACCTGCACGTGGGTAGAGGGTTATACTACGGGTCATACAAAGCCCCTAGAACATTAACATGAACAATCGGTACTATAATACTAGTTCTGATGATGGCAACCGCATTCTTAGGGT has what Disease Control All Rates Average SEPTTR-184 3DC?
84

Disease Control All Rates Average SEPTTR-184 3DC for MgCytB-T5: 172 bp dsRNA of Zymoseptoria CytB region T5, location 173-344 (SEQ ID NO:8) (nucleic acid, listed as Zymoseptoria tritici, complementary strand of dsRNA) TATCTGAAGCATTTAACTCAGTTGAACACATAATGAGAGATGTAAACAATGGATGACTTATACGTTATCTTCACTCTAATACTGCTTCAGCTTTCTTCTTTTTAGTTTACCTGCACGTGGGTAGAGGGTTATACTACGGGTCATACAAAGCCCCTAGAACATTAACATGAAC ?
66
